Every entry's value here was drawn from the supplement of paper PMC10646978.

- Tested on: RAW-Dual (murine macrophage reporter line)
- experiment summary: IRF reporter (Lucia luciferase) activity fold change vs agonist alone; higher = enhanced IRF activity
- condition set: modulator concentration 10 µM; agonist: 3'3'-cGAMP 10 ug/mL
Readings of IRF reporter for the listed compounds

compound	IRF reporter
Cc1nc(C(=O)NCC(=O)O)c(O)c2ccc(Oc3ccccc3)cc12	0.925
Cn1nccc1C(=O)N1CCC(O)(C(F)(F)F)CC1	0.92
Cc1ccc(CSCCNC(=O)CN(c2cccc(C)c2)S(C)(=O)=O)cc1	0.998
COc1ccc(C(=O)Nc2cccc([N+](=O)[O-])c2)cc1I	0.801
CN1CCN(c2ccc(C(=O)Nc3n[nH]c4ccc(Cc5cc(F)cc(F)c5)cc34)c(NC3CCOCC3)c2)CC1	0.129
COc1cc(C=Nc2ccc3oc(-c4ccc(C(C)(C)C)cc4)nc3c2)ccc1OC(=O)c1ccc(Cl)cc1Cl	0.931
CCOC(=O)C1=C(C)NC(C)=C(C(=O)OCC)C1c1cc(Cl)cc(Cl)c1OC	1.07
Cc1cc(OCC(=O)NN=Cc2ccc(O)c([N+](=O)[O-])c2)ccc1Cl	1
CC(Cc1ccc(O)c(O)c1)C(C)Cc1ccc(O)c(O)c1 (configuration not stated)	0.0338
CCC(=O)N1CCCC1c1nc2ccccc2n1CCOc1ccc(Cl)cc1 (configuration not stated)	0.967
O=[N+]([O-])c1ccccc1S(=O)(=O)N1CCCC1	0.921
CC(C)N(C(=O)c1ccc(C(=O)NCc2ccc(S(N)(=O)=O)cc2)cc1)C(C)C	0.961
NC(=O)NCC(N)C(=O)O (configuration not stated)	0.959
CCS(=O)(=O)O.COC(=O)c1ccc2c(c1)NC(=O)/C2=C(\Nc1ccc(N(C)C(=O)CN2CCN(C)CC2)cc1)c1ccccc1	0.036
N[C@@H]1CONC1=O	0.929
O=c1c(O)c(-c2ccc(O)c(O)c2)oc2cc(O)cc(O)c12	0.356
Nc1c2c(nc3ccccc13)CCCC2 [Prestw-329]	1
CCOc1ccc2nc(N(CCCN(C)C)C(=O)c3ccc(Br)s3)sc2c1.Cl	0.406
COC(=O)Nc1nc2cc(C(=O)c3ccccc3)ccc2[nH]1	0.093
O=C(Nc1ccc(F)cc1)c1ccccc1Br	0.73
Cc1cccc(C(C)C)c1NC(=O)c1ccccc1Br	0.988
Cc1cc(OC2CCN(S(=O)(=O)CCc3ccccc3)C2)cc(=O)n1C (configuration not stated)	0.7

----------
- Test system: RAW-Dual (murine macrophage reporter line)
- experiment summary: IRF reporter (Lucia luciferase) activity fold change vs agonist alone; higher = enhanced IRF activity
- condition set: modulator concentration 10 µM; agonist: LPS 0.1 ug/mL
Would you please tag the item condition met when its IRF reporter is 1 or above, and condition not met when it is below?

compound	classification
CSc1ccc(C(=O)O)s1	condition met
Brc1ccc2ncnc(NCc3ccco3)c2c1	condition not met
CC(=O)N=C1NC(=O)C(=Cc2ccc(C)o2)S1	condition not met
Cc1nc[nH]c1CN1CCc2c(c3ccccc3n2C)C1=O.Cl	condition met

----------
Each entry below lists one item and its recorded IRF reporter value.
- System: RAW-Dual (murine macrophage reporter line)
- experiment summary: IRF reporter (Lucia luciferase) activity fold change vs agonist alone; higher = enhanced IRF activity
- condition set: modulator concentration 10 µM; agonist: LPS 0.1 ug/mL

molecule	IRF reporter
CN1C(C(=O)Nc2ccccn2)=C(O)c2ccccc2S1(=O)=O	1.25
O=C(O)CC(c1ccccc1)N1C(=O)c2ccccc2C1=O (stereo unspecified)	1.24
CCS(=O)(=O)N1CC(CC#N)(n2cc(-c3ncnc4[nH]ccc34)cn2)C1	0.338
N[C@@H]1CONC1=O	1.05
O=C1C(=CNCCN2CCOCC2)C(C(F)(F)F)=NN1c1nc2ccccc2s1	1.32
CC(=O)Nc1ccc(NC(=O)COc2ccc(Br)c(C)c2)cc1	1.27
CCN(CCO)CCCOc1ccc2c(Nc3cc(CC(=O)Nc4cccc(F)c4)n[nH]3)ncnc2c1	1.25
CCCCCOC(=O)CSc1nnc(-c2ccc(Cl)cc2Cl)o1	1.04
COC(=O)C1=C(C)NC(=O)NC1c1ccc(Cl)c(Cl)c1 (stereo unspecified)	1.05
O=C(Nc1ccc(Br)cc1)c1cccc(S(=O)(=O)NC2CCCCC2)c1	1.04
Cc1cccc(Nc2ccccc2C(=O)O)c1C	1.03
